Test system: Human Keratinocyte (HaCaT) cells
Assay: LDH cytotoxicity assay, HaCaT
Assay type: cell-based
Conditions: Table 16, summarized cell toxicity values
Protocol: Primary Human Dermal Fibroblast (HDFs) and Human Keratinocyte (HaCaT) cells were selected for cytotoxicity and proliferation testing. HDFs were cultured in high glucose, no glutamine, no phenol red, Dulbecco's Modified Eagle Medium (DMEM) (GIBCO™). […] The secretion of lactate dehydrogenase (LDH) enzyme was used for quantitatively measuring cell damage and cytotoxicity. […]
# Mammalian Cell Cytotoxicity, HaCaT annotations
Entry rule: numbers only, all in µM.

>  <COMPOUND>
CCCCCCCCCCCC[N+](C)(C)CCOCCO.[Br-]

>  <Mammalian Cell Cytotoxicity, HaCaT [µM]>
100

$$$$
>  <COMPOUND>
CCCCCCCCCCCCCCCCCC[N+](C)(C)CCOCCO.[Br-] [Compound 39637_105543]

>  <Mammalian Cell Cytotoxicity, HaCaT [µM]>
6.3

$$$$

# next compound below
Query for Human Keratinocyte (HaCaT) cells: what Mammalian Cell Cytotoxicity, HaCaT does the record show for CCCCCCCCCCCCCCCCCC[N+](C)(C)CCOCCO.[Br-] [Compound 39637_109466] ?
6.3

---

# Mammalian Cell Cytotoxicity, HDF annotations
System: Primary Human Dermal Fibroblast (HDFs)
Assay: LDH cytotoxicity assay, HDF
Format: cell-based
Settings: Table 16, summarized cell toxicity values
Entry rule: numbers only, all in µM.

Examples with their reported Mammalian Cell Cytotoxicity, HDF follow.
>  <COMPOUND>
CCCCCCCCCCCCCCCCCC[N+](C)(C)CCOCCO.[Br-] [Compound 39637_105543]

>  <Mammalian Cell Cytotoxicity, HDF (µM)>
6.3

$$$$
>  <COMPOUND>
CCCCCCCCCCCC[N+](C)(C)CCOCCO.[Br-] [Compound 40597_109444]

>  <Mammalian Cell Cytotoxicity, HDF (µM)>
100

$$$$

Item under review: CCCCCCCCCCCCCCCCCC[N+](C)(C)CCOCCO.[Br-] [Compound 39637_109466] . Reported Mammalian Cell Cytotoxicity, HDF?
6.3

---

System: Enterococcus faecalis EF19433
Assay: MIC, broth microdilution in MH broth with resazurin
Format: cell-based
Details: Table 17; modified Gompertz fit; only values marked ^ are reliable estimates, others unreliable
# MIC EF19433 annotations

Examples with their reported MIC EF19433 follow.
>  <MOLECULE>
CCCCCCCCCCCCCCCCCC[N+](C)(C)CCOCCO.[Br-] [Compound 39637_105543]

>  <MIC EF19433>
3.20^ μM

$$$$
>  <MOLECULE>
CCCCCCCCCCCCCCCCCC[N+](C)(C)CCOCCO.[Br-] [Compound 39637_109466]

>  <MIC EF19433>
2.59^ μM

$$$$

# next molecule below
Item under review: "CCCCCCCCCCCC[N+](C)(C)CCOCCO.[Br-]" . Reported MIC EF19433?
1.63^ μM
